test system: Cryptococcus neoformans; experiment: Antifungal activity against […] IM 972751 after 48 hrs; assay type: functional
MEASUREMENT LABEL: log10(MFC) (log10 of the value in mg/L)
Would you kindly interpret these values as log10 of MFC expressed in mg/L?

Worked set:
log10(MFC) reading for "C[C@@H](c1ncncc1F)[C@](O)(Cn1cncn1)c1ccc(F)cc1F" : -1.52

log10(MFC) reading for "C[C@@H]1[C@H](O)[C@@H](C)/C=C/C=C/C=C/C=C/C=C/C=C/C=C/[C@H](O[C@@H]2O[C@H](C)[C@@H](O)[C@H](N)[C@@H]2O)C[C@@H]2O[C@](O)(C[C@@H](O)C[C@@H](O)[C@H](O)CC[C@@H](O)C[C@@H](O)CC(=O)O[C@H]1C)C[C@H](O)[C@H]2C(=O)O" : -0.60

log10(MFC) reading for "O=C1NC(=S)S/C1=C\c1ccc(F)cc1" : 1.80

log10(MFC) reading for "Nc1nc(=O)[nH]cc1F" : 1.19

Below: the item to evaluate.
log10(MFC) reading for "O=C1NC(=S)S/C1=C\c1ccc(C(F)(F)F)cc1" : 0.89

* * *

test system: Cryptococcus neoformans; test: Antifungal activity against Cryptococcus neoformans ATCC 32264 after 48 hrs; type: functional; details: ATCC 32264, 48 h
MEASUREMENT LABEL: MIC (µg/mL)
Give bare numbers, in µg/mL.

MIC reading for "O=C1NC(=S)S/C1=C\c1ccccc1F" : 15.6

MIC reading for "O=C1NC(=S)S/C1=C\c1ccc(C(F)(F)F)cc1" : 3.9

MIC reading for "O=C1NC(=S)S/C1=C\c1ccc(Cl)cc1" : 15.6

Count: 3. Required value per item: MIC.
1. O=C1NC(=S)S/C1=C\c1ccccc1C(F)(F)F
2. O=C1NC(=S)S/C1=C\c1ccc(F)cc1
3. O=C1NC(=S)S/C1=C\c1ccc(Br)cc1

**Result**
15.6
7.8
62.5

* * *

Kindly state MFC for each of the entries shown.
system: Cryptococcus neoformans; test: Antifungal activity against […] IM 031631 after 48 hrs; format: functional; details: Cryptococcus neoformans, 48 h; read-out: MFC
Give bare numbers, in µg/mL.

MFC reading for "C[C@@H]1[C@H](O)[C@@H](C)/C=C/C=C/C=C/C=C/C=C/C=C/C=C/[C@H](O[C@@H]2O[C@H](C)[C@@H](O)[C@H](N)[C@@H]2O)C[C@@H]2O[C@](O)(C[C@@H](O)C[C@@H](O)[C@H](O)CC[C@@H](O)C[C@@H](O)CC(=O)O[C@H]1C)C[C@H](O)[C@H]2C(=O)O" : 0.13

Count: 4. Required value per item: MFC.
1. O=C1NC(=S)S/C1=C\c1ccc(C(F)(F)F)cc1
2. Nc1nc(=O)[nH]cc1F
3. O=C1NC(=S)S/C1=C\c1ccc(F)cc1
4. CCC(C)n1ncn(-c2ccc(N3CCN(c4ccc(OCC5COC(Cn6cncn6)(c6ccc(Cl)cc6Cl)O5)cc4)CC3)cc2)c1=O (stereo not given)

**Result**
[15.6, 7.8, 31.2, 0.25]

* * *

system: Torulaspora delbrueckii; experiment: Antifungal activity against Candida coliculosa C122-2000 after 48 hrs; assay type: functional
MEASUREMENT LABEL: MFC (µg/mL)
One number for each entry, in µg/mL.

Worked set:
MFC reading for CC(=O)N1CCN(c2ccc(OCC3COC(Cn4ccnc4)(c4ccc(Cl)cc4Cl)O3)cc2)CC1 (centres undefined) : 0.78

MFC reading for "O=C1NC(=S)S/C1=C\c1ccc(F)cc1" : 15.6

MFC reading for "C[C@@H]1[C@H](O)[C@@H](C)/C=C/C=C/C=C/C=C/C=C/C=C/C=C/[C@H](O[C@@H]2O[C@H](C)[C@@H](O)[C@H](N)[C@@H]2O)C[C@@H]2O[C@](O)(C[C@@H](O)C[C@@H](O)[C@H](O)CC[C@@H](O)C[C@@H](O)CC(=O)O[C@H]1C)C[C@H](O)[C@H]2C(=O)O" : 0.36

Below: the item to evaluate.
MFC reading for "O=C1NC(=S)S/C1=C\c1ccc(C(F)(F)F)cc1" : 62.5

* * *

tested on: Aspergillus fumigatus; experiment: Antifungal activity against Aspergillus fumigatus ATCC 26934 after 48 hrs; type: functional; conditions: ATCC 26934, 48 h
MEASUREMENT LABEL: MIC

Worked set:
MIC reading for "O=C1NC(=S)S/C1=C\c1ccc(C(F)(F)F)cc1" : 125 µg/mL

MIC reading for "O=C1NC(=S)S/C1=C\c1ccc2c(c1)OCO2" : > 250 µg/mL

Next:
MIC reading for "COc1ccc(/C=C2\SC(=S)NC2=O)c(OC)c1OC" : > 250 µg/mL

* * *

Kindly state MFC for each of the entries shown.
system: Cryptococcus neoformans; test: Antifungal activity against Candida neoformans IM 983040 after 48 hrs; assay type: functional

Worked set:
MFC reading for "O=C1NC(=S)S/C1=C\c1ccc(F)cc1" : 31.2 µg/mL

MFC reading for CCC(C)n1ncn(-c2ccc(N3CCN(c4ccc(OCC5COC(Cn6cncn6)(c6ccc(Cl)cc6Cl)O5)cc4)CC3)cc2)c1=O (stereo unspecified) [ITRACONAZOLE] : < 0.015 µg/mL

MFC reading for C[C@@H]1[C@H](O)[C@@H](C)/C=C/C=C/C=C/C=C/C=C/C=C/C=C/[C@H](O[C@@H]2O[C@H](C)[C@@H](O)[C@H](N)[C@@H]2O)C[C@@H]2O[C@](O)(C[C@@H](O)C[C@@H](O)[C@H](O)CC[C@@H](O)C[C@@H](O)CC(=O)O[C@H]1C)C[C@H](O)[C@H]2C(=O)O [AMPHOTERICIN B] : 0.13 µg/mL

Count: 3. Required value per item: MFC.
1. O=C1NC(=S)S/C1=C\c1ccc(C(F)(F)F)cc1
2. C[C@@H](c1ncncc1F)[C@](O)(Cn1cncn1)c1ccc(F)cc1F [VORICONAZOLE]
3. Nc1nc(=O)[nH]cc1F [FLUCYTOSINE]

**Result**
1. 15.6 µg/mL
2. < 0.015 µg/mL
3. 7.8 µg/mL

* * *

tested on: Aspergillus flavus; assay: Antifungal activity against Aspergillus flavus ATCC 9170 after 48 hrs; format: functional; conditions: ATCC 9170, 48 h
Kindly state MIC for each of the entries shown.

Worked set:
Considering "O=C1NC(=S)S/C1=C\c1ccc(Cl)cc1" , its MIC with Aspergillus flavus was recorded as 125 µg/mL

Considering "COc1ccc(/C=C2\SC(=S)NC2=O)cc1" , its MIC with Aspergillus flavus was recorded as > 250 µg/mL

Considering "O=C1NC(=S)S/C1=C\c1ccc(Br)cc1" , its MIC with Aspergillus flavus was recorded as > 250 µg/mL

Count: 6. Required value per item: MIC.
1. COc1ccc(/C=C2\SC(=S)NC2=O)c(OC)c1OC
2. O=C1NC(=S)S/C1=C\c1ccccc1F
3. O=C1NC(=S)S/C1=C\c1ccc(C(F)(F)F)cc1
4. O=C1NC(=S)S/C1=C\c1ccc2c(c1)OCO2
5. O=C1NC(=S)S/C1=C\c1ccc(F)cc1
6. O=C1NC(=S)S/C1=C\c1ccccc1C(F)(F)F

**Result**
> 250 µg/mL
> 250 µg/mL
62.5 µg/mL
> 250 µg/mL
250 µg/mL
> 250 µg/mL

Considering "O=C1NC(=S)S/C1=C\[n+]1ccccc1" , its MIC with Aspergillus flavus was recorded as > 250 µg/mL

* * *

test system: Candida albicans; experiment: Antifungal activity against Candida albicans C128-2000 after 48 hrs; type: functional
Kindly state MFC for each of the entries shown.
One number for each entry, in µg/mL.

MFC reading for "O=C1NC(=S)S/C1=C\c1ccc(C(F)(F)F)cc1" : 31.2

MFC reading for CC(=O)N1CCN(c2ccc(OCC3COC(Cn4ccnc4)(c4ccc(Cl)cc4Cl)O3)cc2)CC1 (centres undefined) : 6.25

MFC reading for "C[C@@H]1[C@H](O)[C@@H](C)/C=C/C=C/C=C/C=C/C=C/C=C/C=C/[C@H](O[C@@H]2O[C@H](C)[C@@H](O)[C@H](N)[C@@H]2O)C[C@@H]2O[C@](O)(C[C@@H](O)C[C@@H](O)[C@H](O)CC[C@@H](O)C[C@@H](O)CC(=O)O[C@H]1C)C[C@H](O)[C@H]2C(=O)O" : 1.56

Below: the item to evaluate.
MFC reading for "O=C1NC(=S)S/C1=C\c1ccc(F)cc1" : 62.5

* * *

tested on: Aspergillus fumigatus; test: Antifungal activity against Aspergillus fumigatus ATCC 26934 after 48 hrs; format: functional; conditions: ATCC 26934, 48 h
MEASUREMENT LABEL: MIC

MIC reading for "O=C1NC(=S)S/C1=C\c1ccc(Br)cc1" : > 250 µg/mL

MIC reading for "O=C1NC(=S)S/C1=C\c1ccccc1F" : > 250 µg/mL

MIC reading for "COc1ccc(/C=C2\SC(=S)NC2=O)cc1" : > 250 µg/mL

MIC reading for "O=C1NC(=S)S/C1=C\c1ccccc1C(F)(F)F" : > 250 µg/mL

MIC reading for "O=C1NC(=S)S/C1=C\c1ccc(F)cc1" : 250 µg/mL

Count: 2. Required value per item: MIC.
1. O=C1NC(=S)S/C1=C\[n+]1ccccc1
2. O=C1NC(=S)S/C1=C\c1ccc(Cl)cc1

**Result**
1. > 250 µg/mL
2. 125 µg/mL
